Catalogue of pIC50 values
Target: human S1P1 receptors (Homo sapiens, UniProt P21453)
Sequence (P21453 whole entry): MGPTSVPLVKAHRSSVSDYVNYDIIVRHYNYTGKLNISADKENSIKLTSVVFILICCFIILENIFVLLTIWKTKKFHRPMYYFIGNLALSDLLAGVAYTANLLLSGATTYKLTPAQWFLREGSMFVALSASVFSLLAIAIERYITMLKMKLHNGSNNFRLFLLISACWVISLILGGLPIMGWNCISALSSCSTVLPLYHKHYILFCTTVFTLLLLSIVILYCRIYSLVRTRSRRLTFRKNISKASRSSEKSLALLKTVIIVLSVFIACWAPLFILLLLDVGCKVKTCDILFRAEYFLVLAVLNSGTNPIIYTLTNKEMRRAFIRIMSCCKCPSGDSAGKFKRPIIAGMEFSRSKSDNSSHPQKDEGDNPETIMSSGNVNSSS
Assay: S1P1R antagonist assay (fluorescent membrane potential dye, cAMP readout)
Conditions: HEK293 cells expressing human S1P1 receptors and CNG channel; 500 nM NECA; S1P1R agonist 10 nM; 90 minutes; read-out: EC50 or IC50 value
pIC50: −log10 of the molar value.

Some solved cases for reference:
Item under review: Cc1cc(CC(=O)N2C[C@H](Cc3ccccc3)C[C@H]2C(=O)Nc2ccc(Oc3ccc(F)cc3)cc2)on1 [Compound 32] . Reported pIC50?
≥ 6.52

Which pIC50 reading was recorded for the compound O=C(CCC(=O)c1cccs1)NC(COCc1ccccc1)C(=O)Nc1ccc(Oc2ccccc2)cc1 (stereo not shown) [Compound 312] ?
< 6.00

Requested field: pIC50. Item: C=CCCC(=O)NC(COCc1ccccc1)C(=O)Nc1ccc(Oc2ccccc2)cc1 (stereo not shown) [Compound 298]
< 6.00

Now let's try a different one.
Endpoint output: pIC50 of O=C(NC(COCc1ccccc1)C(=O)Nc1ccc(Oc2ccccc2)cc1)c1sc2ccccc2c1Cl (stereo not shown) [Compound 297] . Value?
< 6.00
